targetDesc: T1, human gpNMB (Human Osteoactivin, His-tag, AcroBioSystems) (human, UniProt Q14956-2 23-486, limits assumed)
T1 sequence (looked up): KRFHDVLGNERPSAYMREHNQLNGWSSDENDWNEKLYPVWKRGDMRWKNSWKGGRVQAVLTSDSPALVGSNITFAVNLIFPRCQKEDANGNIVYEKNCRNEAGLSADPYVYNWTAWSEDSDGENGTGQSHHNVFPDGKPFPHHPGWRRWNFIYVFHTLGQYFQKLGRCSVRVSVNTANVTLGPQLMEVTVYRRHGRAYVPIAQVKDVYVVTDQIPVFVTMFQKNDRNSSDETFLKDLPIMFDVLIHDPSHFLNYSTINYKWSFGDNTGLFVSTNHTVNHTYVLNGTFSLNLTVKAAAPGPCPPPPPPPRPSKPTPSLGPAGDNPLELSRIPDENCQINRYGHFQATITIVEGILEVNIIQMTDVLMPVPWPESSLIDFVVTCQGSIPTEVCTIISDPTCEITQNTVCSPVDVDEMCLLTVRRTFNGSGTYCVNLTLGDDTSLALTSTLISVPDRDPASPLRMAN
protocolDescription: SPR Biacore 8K, antibody captured on protein A, gpNMB as analyte
endpoint: Kd (nM)
Give a bare numeral; the unit nM is implied.

// below: answered binders
hGPN18-5_H3L3 (antibody, V domains shown, humanized; also called hGPN18-5_VH3+VL3) VH: QVQLVQSGAEVKKPGASVKVSCKASGYTFTTYWMNWVRQAPGQGLEWIGAINPSNDYTEYNQKFKDRAIMTADKSTSTVYMELSSLRSEDTAVYYCGRSYSPDYWGQGTTVTVSS VL: DIQMTQSPSSLSASVGDRVTITCKASQNVDNHVAWHQQKPGKAPKALIYSASYRYSGVPDRFTGSGSGTDFTLTISSLQPEDFADYFCQQYKSYPFTFGGGTKLEIK	352
hGPN18-5_H1L3 (antibody, V domains shown, humanized; also called hGPN18-5_VH1+VL3; GPN18-5-VH1+VL3) VH: QVQLVQSGAEVKKPGASVKVSCKASGYTFTTYWMNWVRQAPGQGLEWIGAINPSNDYTEYNQKFKDRVTMTADTSTSTVYMELSSLRSEDTAVYYCGRSYSPDYWGQGTTVTVSS VL: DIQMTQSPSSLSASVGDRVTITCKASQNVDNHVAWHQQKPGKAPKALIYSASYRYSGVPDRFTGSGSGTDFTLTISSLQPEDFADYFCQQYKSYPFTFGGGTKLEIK	214
hGPN18-5_H0L0 (antibody, V domains shown, chimeric antibody with mouse GPN18-5 variable regions (VH0, VL0); also called hGPN18-5_VH0+VL0; HGPN18-5_VH0+VL0) VH: QVQLQQSGAELAKPGTSVKMSCKASGYTFTTYWMNWVKQRPGQDLEWIGAINPSNDYTEYNQKFKDKAILTADKSSNTAYMQLSSLTSEDSAVYYCGRSYSPDYWGQGTTLTVSS VL: DIVMTQSQKFMSTSVGDRVSVTCKASQNVDNHVAWHQQKPGQSPKALIYSASYRYSGVPDRFTGSGSGTDFTLTIRDVQSEDLADYFCQQYKSYPFTFGSGTELEIK	237

Turning now to a further binder:
**Q:** What measured Kd goes with hGPN18-5_H3L2 (antibody, V domains shown, humanized; also called hGPN18-5 VH3+VL2) VH: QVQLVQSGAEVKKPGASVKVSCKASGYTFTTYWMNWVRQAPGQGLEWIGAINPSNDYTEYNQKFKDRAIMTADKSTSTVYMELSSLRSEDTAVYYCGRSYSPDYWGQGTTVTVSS VL: DIQMTQSPSSLSASVGDRVTITCKASQNVDNHVAWFQQKPGKAPKALIYSASYRYSGVPDRFSGSGSGTDFTLTISSLQPEDFATYFCQQYKSYPFTFGGGTKLEIK ?
**A:** 548
